Attribution: patent US20250144067A1

- Test system: NCI-H292 lung cancer cells
- ASSAY EXPLANATION: FDA drug screening, complete media vs cholesterol-free media with simvastatin (TABLE 2)
- Assay type: cell-based, human
- ASSAY CONTEXT: NCI-H292 cells, FDA drug library screen, complete media
Output satisfied for Complete Media not less than 1; output not satisfied otherwise.

Could you tell me if the measured Complete Media of `O=C1NC(=O)C(c2ccccc2)(c2ccccc2)N1` reaches 1 or more? satisfied

Could you tell me if the measured Complete Media of `CCCN1C[C@H](C)[C@@H](O)[C@](C)(O)[C@@H](CC)OC(=O)[C@H](C)[C@@H](O[C@H]2C[C@@](C)(OC)[C@@H](O)[C@H](C)O2)[C@H](C)[C@@H](O[C@@H]2O[C@H](C)C[C@H](N(C)C)[C@H]2O)[C@](C)(O)C[C@H]1C` reaches 1 or more? satisfied

Could you tell me if the measured Complete Media of CCCCCCCCCCCCCCCC(=O)O[C@@H]1[C@@H](O)[C@@H](O)[C@@H]([C@H](NC(=O)[C@@H]2C[C@@H](CCC)CN2C)[C@H](C)Cl)O[C@@H]1SC.Cl [Clindamycin palmitate (hydrochloride)] reaches 1 or more? not satisfied

Could you tell me if the measured Complete Media of `CS(=O)(=O)c1cccc(C[C@H](NC(=O)c2c(Cl)cc3c(c2Cl)CCN(C(=O)c2ccc4ccoc4c2)C3)C(=O)O)c1` reaches 1 or more? not satisfied

Could you tell me if the measured Complete Media of `C[C@@H]1C[C@H]2[C@@H]3CCC4=CC(=O)C=C[C@]4(C)[C@@]3(F)[C@@H](O)C[C@]2(C)[C@@]1(O)C(=O)CO` reaches 1 or more? not satisfied

###

- System: NCI-H292 lung cancer cells
- ASSAY EXPLANATION: FDA drug screening, complete media vs cholesterol-free media without statin (TABLE 1)
- Assay type: cell-based, human
- ASSAY CONTEXT: complete vs cholesterol-free media; greater than 0 enhanced anti-cancer activity, about 0 neutral, below 0 antagonists
Where a name gives a salt, the structure may show the parent alone.
For each of the compounds below, state its Difference.
Would you mind answering with just the numeric figure?

Provide the documented Difference with NCI-H292 lung cancer cells as the system for CC(C)(C)NC(=O)[C@H]1CC[C@H]2[C@@H]3CC[C@H]4NC(=O)C=C[C@]4(C)[C@H]3CC[C@]12C [Finasteride] −0.42

Provide the documented Difference with NCI-H292 lung cancer cells as the system for Nc1[nH]c(=O)ncc1F [Flucytosine] −0.40

Provide the documented Difference with NCI-H292 lung cancer cells as the system for C[C@H](CCC(=O)O)[C@H]1CC[C@H]2[C@@H]3[C@@H](O)C[C@@H]4C[C@H](O)CC[C@]4(C)[C@H]3CC[C@]12C [Ursodiol] −0.41

Provide the documented Difference with NCI-H292 lung cancer cells as the system for COC(=O)[C@H]1[C@H]2C[C@H]3c4[nH]c5ccccc5c4CCN3C[C@H]2CC[C@@H]1O [Rauwolscine (hydrochloride)] −0.41

Provide the documented Difference with NCI-H292 lung cancer cells as the system for CC1COc2c(N3CCN(C)CC3)c(F)cc3c(=O)c(C(=O)O)cn1c23 (centres unmarked) [Ofloxacin] −0.36

Provide the documented Difference with NCI-H292 lung cancer cells as the system for C[C@H](O)C(=O)O [L-Lactic acid] −0.45

Provide the documented Difference with NCI-H292 lung cancer cells as the system for Nc1c(CC(=O)O)cccc1C(=O)c1ccc(Br)cc1 [Bromfenac (sodium)] −0.34

Provide the documented Difference with NCI-H292 lung cancer cells as the system for CC(C)(C)c1cc(-c2cc(-c3ccc(C(=O)O)cc3)ccc2OCCO)ccc1N1CCCC1 [Trifarotene] −0.31

Provide the documented Difference with NCI-H292 lung cancer cells as the system for Nc1ccc(O)c(C(=O)O)c1 [5-Aminosalicylic Acid] −0.33

Provide the documented Difference with NCI-H292 lung cancer cells as the system for CCc1cccc2c3c([nH]c12)C(CC)(CC(=O)O)OCC3 (centres unmarked) [Etodolac] −0.33

Provide the documented Difference with NCI-H292 lung cancer cells as the system for CCCCOc1ccc(OCCCN2CCOCC2)cc1 [Pramocaine (hydrochloride)] −0.37

Provide the documented Difference with NCI-H292 lung cancer cells as the system for CC1=NS(=O)(=O)c2cc(Cl)ccc2N1 [Diazoxide] −0.36

Provide the documented Difference with NCI-H292 lung cancer cells as the system for O=C(O)CCNC(=O)c1ccc(/N=N/c2ccc(O)c(C(=O)O)c2)cc1 [Balsalazide] −0.33

Provide the documented Difference with NCI-H292 lung cancer cells as the system for CC(=O)O[C@]1(C(C)=O)CC[C@H]2[C@@H]3C[C@H](C)C4=CC(=O)C=C[C@]4(C)[C@@]3(F)[C@@H](O)C[C@@]21C [Fluorometholone acetate] −0.41

Provide the documented Difference with NCI-H292 lung cancer cells as the system for CN(C)CC/C=C1/c2ccccc2Sc2ccc(Cl)cc21 [Chlorprothixene (hydrochloride)] −0.46

Provide the documented Difference with NCI-H292 lung cancer cells as the system for CC(=O)Nc1ccc(OC(=O)c2ccccc2OC(C)=O)cc1 [Benorilate] −0.33

Provide the documented Difference with NCI-H292 lung cancer cells as the system for CC(=O)OCC(=O)[C@@]1(O)CC[C@H]2[C@@H]3CCC4=CC(=O)C=C[C@]4(C)[C@H]3[C@@H](O)C[C@@]21C [Prednisolone acetate] −0.33
